These measurements were taken from PubChem BioAssay (NCI).

# Test system: SN12C renal
# Protocol Notes: NCI-60 one-dose screen, 48 h (100 = growth as untreated, 0 = no growth, -100 = all killed)
# Recorded Conditions: 10 µM unless noted
This is part of a sample that, as a whole, favours compounds with a hit. Of some 83,000 tested, about 20% had one in any assay.
Quantity Name: growth (%)
The reply should contain only the number, in %.

Molecule	Unit	growth
Cc1cc2c(C(=O)NCC#N)cccc2n1-c1nc2c(c(NCc3ccccc3)n1)CCCC2	%	-67.9
N#C/C(=C\c1ccc([N+](=O)[O-])s1)c1nc2cc(Br)ccc2s1	%	-30.1
c1ccc2c(-c3nccs3)c[nH]c2c1	%	98.3

Qu. Give the measured growth of Cn1cc(-c2csc(-c3c[nH]c4ccccc34)n2)c2ccnc(Cl)c21 .
Ans. 76.5

Qu. Give the measured growth of CC1(C)CC(=O)C2=C(C1)N(c1ccc(F)cc1F)C(N)=C(C#N)C2c1cc(Br)ccc1F (configuration not stated) .
Ans. 96.6

Qu. Give the measured growth of Nc1c(C(=O)Nc2ccnc3ccccc23)sc2nc3c(cc12)CN(Cc1ccccc1)CC3 .
Ans. 74.6

Qu. Give the measured growth of N#C/C(=C\c1ccc(C(F)(F)F)cc1)c1cc2ccccc2[nH]1 .
Ans. 99.2

Qu. Give the measured growth of CCCCCC(=O)Oc1ccc(/C(=C(\C)c2ccccc2)c2ccc(OCCN3CCCCC3)cc2)cc1 .
Ans. 79.5

====

# Tested on: LOX IMVI melanoma
# Protocol Notes: NCI-60 one-dose screen, 48 h (100 = growth as untreated, 0 = no growth, -100 = all killed)
# Recorded Conditions: 10 µM unless noted
About 83,000 compounds went through this panel and 20% of them were active in at least one assay; those are over-represented in the sample as a whole. Active and inactive are the calls of the source. Rule for the calls: active = growth percent below 10; inactive = the rest.
Quantity Name: growth

The examples below pair each entry with its known result.
> print(dat)
                                   compound            result
1                S=c1cc(S)c2cc(Br)ccc2[nH]1  95.9% (inactive)
2  COc1cc(/C(C)=C(\c2ccc(Cl)cc2)c2ccc(OCCN3CCCC3)cc2)ccc1F    46% (inactive)
3  CC(C)(C)c1cc(/C=N/NC(=O)c2ccccc2NC(=O)c2cccs2)c(O)c(C(C)(C)C)c1   -34.2% (active)

Qu. Give the measured growth of Nc1c(C(=O)Nc2cccc3cnccc23)sc2nc3c(cc12)C(=O)CCC3 .
Ans. 91.6% (inactive)

Qu. Give the measured growth of CCNc1nc2ccc(Nc3ccnc4cc(Cl)ccc34)cc2[nH]1 .
Ans. 70.6% (inactive)

====

Item-by-item account of growth
# System: SF-539 CNS
# Protocol Notes: NCI-60 one-dose screen, 48 h (100 = growth as untreated, 0 = no growth, -100 = all killed)
# Recorded Conditions: 10 µM unless noted
About 83,000 compounds went through this panel and 20% of them were active in at least one assay; those are over-represented in the sample as a whole.
The reply should contain only the number, in %.

Molecule	Unit	growth
N#C/C(=C\c1ccc([N+](=O)[O-])s1)c1nc2cc(Cl)ccc2s1	%	-35
O=C1Nc2ccccc2/C1=C\c1c(-c2ccc(F)cc2)nc2ccccn12	%	78
N#CC1=C(N)Oc2c(cnn2-c2ccc([N+](=O)[O-])cc2[N+](=O)[O-])C1c1ccccc1 (configuration not stated)	%	98.2
c1ccc(Cn2cnc3ccc(-c4nc(-c5ccc6c(c5)ncn6C5CCCCC5)cn5ccnc45)cc32)cc1	%	-77.6
C[C@H]1[C@H]2[C@H]3CC[C@@H]4[C@@]5(C)CC[C@H](O)C(C)(C)[C@@H]5CC[C@@]4(C)[C@]3(C)CC[C@]23CO[C@]1(C)[C@@H](C(=O)/C=C\c1ccco1)C3	%	99.7

Next up:
Qu. GET /values?readout=growth&system=SF-539 CNS&item= C=C1C(=O)O[C@H]2[C@H]1CC/C(COC(=O)NCc1c[nH]c3ccc(Br)cc13)=C\CC[C@@]1(C)O[C@@H]21
Ans. -36.9
